- testTarget: DmNobo (Drosophila melanogaster, UniProt Q7JYX0)
- Construct: gene GstE14; full-length CDS, pCold-III, N-terminal translation enhancing element MNHKV kept; E. coli BL21(DE3); homodimer
- Sequence (Q7JYX0 whole entry): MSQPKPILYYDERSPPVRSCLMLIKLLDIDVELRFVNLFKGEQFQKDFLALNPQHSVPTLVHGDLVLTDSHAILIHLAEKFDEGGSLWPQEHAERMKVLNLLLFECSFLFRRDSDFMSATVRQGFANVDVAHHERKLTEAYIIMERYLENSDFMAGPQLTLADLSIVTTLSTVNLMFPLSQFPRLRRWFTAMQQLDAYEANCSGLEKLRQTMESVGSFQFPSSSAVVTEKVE
- method: fluorogenic GSH conjugation assay with […],4-DNADCF
- Assay type: biochemical
- studyConditions: 1 mM GSH, 1 μM 3,4-DNADCF (final, after equal-volume mixing), 100 mM sodium phosphate pH 6.5, 0.01% Tween 20; H-site
quantityMeasured: pIC50
One number for each entry, as −log10 of the molar value.

Would you please give the reported pIC50 of "C[C@]12CC[C@@H]3c4ccc(O)cc4CC[C@H]3[C@@H]1CC[C@@H]2O" with DmNobo (Drosophila melanogaster, UniProt Q7JYX0)?
5.63
